Sourced from patent US20240116985A1

Assay: Solubility in PBS
Format: physicochemical
endpoint-name: Solubility (µM)
Use µM as the unit, but write only the number.

CC[C@H](C)[C@@H]1NC(=O)[C@H](CC(=O)O)NC(=O)[C@]2(CC=CCCCC3(CCCC=CCCCCCC[C@@](C)(C(=O)N[C@@H](Cc4ccccc4)C(=O)N[C@@H](Cc4csc5ccccc45)C(N)=O)NC(=O)[C@H](CCC(N)=O)NC(=O)[C@H](Cc4ccccc4)NC(=O)[C@H](C)NC(=O)[C@H](C)NC(=O)[C@H](CCC(=O)O)NC(=O)[C@H](CC(=O)O)NC3=O)NC1=O)CCCN2C(C)=O (some centres unmarked) [I-408]: 50

-- ask Give Solubility for CC(=O)N1CCC[C@]12CC=CCCCC1(CCCC=CCCCCCC[C@@](C)(C(=O)N[C@@H](C)C(=O)N[C@@H](Cc3c[nH]c4ccccc34)C(=O)N[C@@H](CCC(N)=O)C(N)=O)NC(=O)[C@H](C(C)C)NC(=O)[C@H](Cc3ccccc3)NC(=O)[C@H](C)NC(=O)[C@H](C)NC(=O)[C@H](CC(=O)O)NC(=O)[C@H](CC(=O)O)NC1=O)NC(=O)[C@H](C)NC(=O)[C@H](CC(=O)O)NC2=O (some centres unmarked) [I-355]
-- reply 49

---

Target: beta-catenin/TCF4 engagement (Homo sapiens, UniProt P35222)
Construct: expressed in transfected cells; host or cells: HEK293
Sequence (P35222 whole entry): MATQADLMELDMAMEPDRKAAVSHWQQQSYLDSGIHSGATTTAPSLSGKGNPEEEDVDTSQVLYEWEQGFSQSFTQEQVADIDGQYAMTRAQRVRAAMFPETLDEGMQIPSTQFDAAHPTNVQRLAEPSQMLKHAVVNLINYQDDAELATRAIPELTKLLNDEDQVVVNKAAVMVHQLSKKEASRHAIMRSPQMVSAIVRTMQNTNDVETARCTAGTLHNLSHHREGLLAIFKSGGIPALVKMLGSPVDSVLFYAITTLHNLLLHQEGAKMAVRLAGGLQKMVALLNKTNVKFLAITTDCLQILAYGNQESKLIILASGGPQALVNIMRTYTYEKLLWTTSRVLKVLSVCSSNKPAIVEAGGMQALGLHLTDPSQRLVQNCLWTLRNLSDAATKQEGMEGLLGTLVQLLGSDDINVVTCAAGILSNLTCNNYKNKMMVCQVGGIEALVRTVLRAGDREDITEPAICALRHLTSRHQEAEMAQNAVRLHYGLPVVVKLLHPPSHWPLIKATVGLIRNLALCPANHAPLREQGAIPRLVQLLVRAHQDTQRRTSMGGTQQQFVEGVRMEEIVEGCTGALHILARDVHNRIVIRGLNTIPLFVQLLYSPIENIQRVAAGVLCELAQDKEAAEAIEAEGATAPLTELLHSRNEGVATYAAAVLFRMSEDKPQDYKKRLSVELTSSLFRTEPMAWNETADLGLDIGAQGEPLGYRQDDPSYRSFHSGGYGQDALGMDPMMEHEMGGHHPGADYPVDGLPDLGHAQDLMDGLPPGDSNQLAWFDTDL
Assay: Nano-BRET target engagement assay (B-cat-Halo & TCF4-Luc in HEK293 cells)
Type: cell-based
Details: read-out: NanoBRET IC50
Overview of reported pIC50 across a group of compounds:
Notebook: values listed as pIC50 are -log10 of the concentration (mol/L).

Example cases with answers are listed next.
CC(=O)N1CCC[C@]12CC=CCCCC1(CCCC=CCCCOC(=O)N3CC[C@@](C(=O)N[C@@H](Cc4ccccc4C(F)(F)F)C(=O)N[C@@H](Cc4csc5ccccc45)C(=O)N[C@@H](CCC(N)=O)C(N)=O)(C3)NC(=O)[C@H](CC(N)=O)NC(=O)[C@H](Cc3ccccc3)NC(=O)[C@H](C)NC(=O)[C@H](C)NC(=O)[C@H](CN(CC(=O)O)CC(F)(F)F)NC(=O)[C@H](CC(=O)O)NC1=O)NC(=O)[C@H](CC(C)(C)C)NC(=O)[C@H](CC(=O)O)NC2=O (stereo partly drawn): 5.30
CC(=O)N1CCC[C@]12CC=CCCCC1(CCCC=CCCCOC(=O)N3CC[C@@](C(=O)N[C@@H](Cc4ccccc4Cl)C(=O)N[C@@H](Cc4csc5ccccc45)C(=O)N[C@@H](Cc4c[nH]cn4)C(N)=O)(C3)NC(=O)[C@H](CC(N)=O)NC(=O)[C@H](Cc3ccccc3)NC(=O)[C@H](C)NC(=O)[C@H](C)NC(=O)[C@H](CC(=O)O)NC(=O)[C@H](CC(=O)O)NC1=O)NC(=O)[C@H](CC(C)(C)C)NC(=O)[C@H](CC(=O)O)NC2=O (stereo partly drawn): 4.92

Continue with the compound presented below.
-- ask Give pIC50 for CC(=O)N1CCC[C@]12CC=CCCCC1(CCCC=CCCCOC(=O)N3CC[C@@](C(=O)N[C@@H](Cc4ccsc4)C(=O)N[C@@H](Cc4csc5ccccc45)C(=O)N[C@@H](CCC(N)=O)C(=O)N[C@H](C)C(N)=O)(C3)NC(=O)[C@H](CC(N)=O)NC(=O)[C@H](Cc3ccccc3)NC(=O)[C@H](C)NC(=O)[C@H](C)NC(=O)[C@H](CC(=O)O)NC(=O)[C@H](CC(=O)O)NC1=O)NC(=O)[C@H](CC(C)(C)C)NC(=O)[C@H](CC(=O)O)NC2=O (stereo partly drawn)
-- reply 5.11

---

Assay: CHI Log D procedure
Assay type: physicochemical
Details: pH 7.4, CHI Log D
Overview of reported chromatographic logD across a group of molecules:

CC(=O)N1CCC[C@]12CC=CCCCC1(CCCC=CCCCCCC[C@@](C)(C(=O)N[C@@H](Cc3ccccc3C(N)=O)C(=O)N[C@@H](Cc3csc4ccccc34)C(=O)N[C@@H](CCC(N)=O)C(N)=O)NC(=O)[C@H](C(C)C)NC(=O)[C@H](Cc3ccccc3)NC(=O)[C@H](C)NC(=O)[C@H](C)NC(=O)[C@H](CC(=O)O)NC(=O)[C@H](CC(=O)O)NC1=O)NC(=O)[C@H](C)NC(=O)[C@H](CC(=O)O)NC2=O (some centres unmarked): 1.74
CC[C@H](C)[C@@H]1NC(=O)[C@H](CC(=O)O)NC(=O)[C@]2(CC=CCCCC3(CCCC=CCCCCCC[C@@](C)(C(=O)N[C@@H](Cc4ccccc4)C(=O)N[C@@H](Cc4csc5ccccc45)C(=O)N[C@@H](CCC(N)=O)C(N)=O)NC(=O)[C@H](CCC(N)=O)NC(=O)[C@H](CC4CCCCC4)NC(=O)[C@H](C)NC(=O)[C@H](C)NC(=O)[C@H](CCC(=O)O)NC(=O)[C@H](CC(=O)O)NC3=O)NC1=O)CCCN2C(C)=O (some centres unmarked): 2.52
CC(=O)N1CCC[C@]12CC=CCCCC1(CCCC=CCCCCCC[C@@](C)(C(=O)N[C@@H](Cc3ccccc3)C(=O)N[C@@H](Cc3c[nH]c4ccccc34)C(=O)N[C@@H](CCC(N)=O)C(N)=O)NC(=O)[C@H](C(C)C)NC(=O)[C@H](Cc3ccccc3)NC(=O)[C@H](C)NC(=O)[C@H](C)NC(=O)C(Cc3cccc4cc(F)ccc34)NC(=O)[C@H](CC(=O)O)NC1=O)NC(=O)[C@H](C)NC(=O)[C@H](CC(=O)O)NC2=O (some centres unmarked): 3.1
CC(=O)N1CCC[C@]12CC=CCCCC1(CCCC=CCCCCCC[C@@](C)(C(=O)N[C@@H](Cc3ccccc3)C(=O)N[C@@H](Cc3c[nH]c4ccccc34)C(=O)N[C@@H](CCC(N)=O)C(N)=O)NC(=O)[C@H](C(C)C)NC(=O)[C@H](Cc3ccccc3)NC(=O)[C@H](C)NC(=O)[C@H](C)NC(=O)[C@H](CCC(=O)O)NC(=O)[C@H](Cc3cccnc3)NC1=O)NC(=O)[C@H](C)NC(=O)[C@H](CC(=O)O)NC2=O (some centres unmarked): 2.82

-- ask Give chromatographic logD for CC(=O)N1CCC[C@]12CC=CCCCC1(CCCC=CCCCOC(=O)N3CC[C@@](C(=O)N[C@@H](Cc4ccsc4)C(=O)N[C@@H](Cc4ccc5ccccc5c4)C(=O)N[C@@H](Cc4c[nH]cn4)C(N)=O)(C3)NC(=O)[C@H](CC(N)=O)NC(=O)[C@H](Cc3ccccc3)NC(=O)[C@H](C)NC(=O)[C@H](C)NC(=O)[C@H](CC(=O)O)NC(=O)[C@H](CC(=O)O)NC1=O)NC(=O)[C@H](CC(C)(C)C)NC(=O)[C@H](CC(=O)O)NC2=O (some centres unmarked)
-- reply 2.12

---

Assay: CHI Log D procedure
Assay type: physicochemical
Conditions: pH 7.4, CHI Log D
endpoint-name: chromatographic logD
Enter a number only.

COC[C@@H]1NC(=O)[C@H](Cc2ccccc2)NC(=O)[C@H](C)NC(=O)[C@H](C)NC(=O)[C@H](CCC(=O)O)NC(=O)[C@H](CC(=O)O)NC(=O)C2(CCCC=CCCCCCC[C@@](C)(C(=O)N[C@@H](Cc3ccccc3)C(=O)N[C@@H](Cc3csc4ccccc34)C(=O)N[C@@H](CCC(N)=O)C(N)=O)NC1=O)CCCC=CC[C@]1(CCCN1C(C)=O)C(=O)N[C@@H](CC(=O)O)C(=O)N[C@@H](C)C(=O)N2 (some centres unmarked): 2.08
CC(=O)N1CCC[C@]12CC=CCCCC1(CCCC=CCCCOC(=O)N3CC[C@@](C(=O)N[C@@H](Cc4ccccc4Cl)C(=O)N[C@@H](Cc4csc5ccccc45)C(=O)N[C@@H](CCC(N)=O)C(N)=O)(C3)NC(=O)[C@H](CC(N)=O)NC(=O)[C@H](Cc3ccccc3)NC(=O)[C@H](CCCCN)NC(=O)[C@H](C)NC(=O)[C@H](CN(CC(=O)O)CC(F)(F)F)NC(=O)[C@H](CC(=O)O)NC1=O)NC(=O)[C@H](CC(C)(C)C)NC(=O)[C@H](CC(=O)O)NC2=O (some centres unmarked): 1.7

-- ask Give chromatographic logD for CC[C@H](C)[C@@H]1NC(=O)[C@H](CC(=O)O)NC(=O)[C@]2(CC=CCCCC3(CCCC=CCCCCCC[C@@](C)(C(=O)N[C@@H](Cc4ccccc4)C(=O)N[C@@H](Cc4csc5ccccc45)C(=O)N[C@@H](CCC(N)=O)C(N)=O)NC(=O)[C@H](CCC(N)=O)NC(=O)[C@H](Cc4ccccc4)NC(=O)[C@H](C)NC(=O)[C@H](Cc4c[nH]c5ccccc45)NC(=O)[C@H](CCC(=O)O)NC(=O)[C@H](CC(=O)O)NC3=O)NC1=O)CCCN2C(C)=O (some centres unmarked)
-- reply 2.69

-- ask Give chromatographic logD for CC(=O)N1CCC[C@]12CC=CCCCC1(CCCC=CCCCOC(=O)N3CC[C@@](C(=O)N[C@@H](Cc4ccccc4Cl)C(=O)N[C@@H](Cc4csc5ccccc45)C(=O)N[C@@H](CCC(N)=O)C(N)=O)(C3)NC(=O)[C@H](CC(N)=O)NC(=O)[C@H](Cc3ccccc3)NC(=O)[C@H](C)NC(=O)[C@H](C)NC(=O)[C@H](CC(=O)O)NC(=O)[C@H](CC(=O)O)NC1=O)NC(=O)[C@H](Cc1ccccc1)NC(=O)[C@H](CC(=O)O)NC2=O (some centres unmarked)
-- reply 2.08

-- ask Give chromatographic logD for CC[C@H](C)[C@@H]1NC(=O)[C@H](CC(=O)O)NC(=O)[C@]2(CC=CCCCC3(CCCC=CCCCCCC[C@@](C)(C(=O)N[C@@H](Cc4ccccc4)C(=O)N[C@@H](Cc4csc5ccccc45)C(=O)N[C@@H](CCN)C(N)=O)NC(=O)[C@H](CCC(N)=O)NC(=O)[C@H](Cc4ccccc4)NC(=O)[C@H](C)NC(=O)[C@H](C)NC(=O)[C@H](CC(=O)O)NC(=O)[C@H](CC(=O)O)NC3=O)NC1=O)CCCN2C(C)=O (some centres unmarked)
-- reply 2.48
